Tested target: Pro-neuregulin-1, membrane-bound isoform (Homo sapiens) (UniProt Q02297)
Sequence (Q02297 whole entry, looked up, canonical isoform): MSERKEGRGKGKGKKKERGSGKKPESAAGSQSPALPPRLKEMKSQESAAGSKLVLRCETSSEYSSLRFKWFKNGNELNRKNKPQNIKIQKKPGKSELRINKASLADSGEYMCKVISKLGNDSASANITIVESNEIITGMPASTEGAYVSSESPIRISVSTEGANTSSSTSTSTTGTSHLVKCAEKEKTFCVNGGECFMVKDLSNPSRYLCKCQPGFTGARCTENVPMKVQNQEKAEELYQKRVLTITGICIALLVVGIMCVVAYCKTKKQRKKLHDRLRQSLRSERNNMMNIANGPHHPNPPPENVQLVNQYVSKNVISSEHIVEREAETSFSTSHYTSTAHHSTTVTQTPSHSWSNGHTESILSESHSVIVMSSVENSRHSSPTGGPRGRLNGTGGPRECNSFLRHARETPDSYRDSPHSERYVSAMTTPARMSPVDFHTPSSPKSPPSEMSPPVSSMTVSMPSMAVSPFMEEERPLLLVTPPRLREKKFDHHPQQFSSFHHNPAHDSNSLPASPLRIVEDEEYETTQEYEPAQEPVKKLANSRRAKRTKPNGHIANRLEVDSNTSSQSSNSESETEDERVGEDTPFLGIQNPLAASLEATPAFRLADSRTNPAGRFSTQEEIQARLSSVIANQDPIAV
Method: small molecules binding neuregulin-1 protein – biochemical, small-molecule microarray, fluorescence 635/667, psychiatric disease protein project, primary screen (AID 1075);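 further: score combines 667 nm spot fluorescence with signal to noise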
Measurement conditions: NRG1 binding, 635 nm fluorescence, higher = more signal
Measurement name: composite z-score
Please give the numeric answer without any surrounding text.

Exercise: Give composite z-score (Pro-neuregulin-1, membrane-bound isoform (Homo sapiens) (UniProt Q02297)) of the following compound: O=C1O[C@H](c2ccccc2)[C@H](c2ccccc2)N2[C@H]1[C@@H](C(=O)NC[C@H](O)c1ccccc1)[C@]1(C(=O)Nc3ccc(C#CC4=CCCCC4)cc31)[C@H]2c1ccc(O)cc1
Solution: 1.4

Exercise: Another compound to check: COCCOC(=O)N1C(=O)[C@@]2(c3ccccc31)[C@H](c1ccc(O)cc1)N1[C@H](c3ccccc3)[C@H](c3ccccc3)OC(=O)[C@H]1[C@@H]2C(N)=O
Solution: 0.178

Exercise: Another compound to check: C=CCC(OC(C)=O)[C@@H]1[C@@H](N(Cc2cc3ccccc3o2)C(=O)c2cccc3ccccc23)c2cc(OCCCO)ccc2N1C(=O)Cc1ccc(OC)cc1 (some centres undefined)
Solution: 0.758

Exercise: Another compound to check: CN1C(=O)C2C=CC(C(O)C(C)(C)C)N(Nc3ccccc3)C2C1=O (centres undefined)
Solution: 1.4

Exercise: Another compound to check: COC(=O)[C@@]1(Cc2ccc(F)cc2)[C@H]2c3cc(C(=O)N(C)C)n(CCc4c[nH]c5ccc(OC)cc45)c3C[C@H]2CN1C(=O)c1ccccc1
Solution: 0.88

Exercise: Another compound to check: O=C1C2C=CC(C(O)c3ccc(-c4ccccc4)s3)N(Nc3ccccc3F)C2C(=O)N1c1ccccc1 (centres undefined)
Solution: 1.65

Exercise: Another compound to check: CC(C)N1C(=O)c2ccccc2[C@](C)(C(=O)NCCCN(C)C)[C@@H]1c1ccc(CO)cc1
Solution: 0.724

Exercise: Another compound to check: CCCC[C@H]1OB(O)C[C@H]2C1=C(COc1ccccc1)C[C@H]1C(=O)N(Cc3ccccc3)C(=O)[C@H]12
Solution: 0.117

Exercise: Another compound to check: COC(=O)[C@@]1(Cc2ccccc2)[C@H]2c3cc(C(=O)N(C)C)n(Cc4cc(F)c(F)c(F)c4)c3C[C@H]2CN1C(=O)c1ccccc1
Solution: 2.02

Exercise: Another compound to check: CCCCN1CC=CC23O[C@@H]4/C=C\CCCOC(=O)C4[C@H]2C(=O)N(C(C)CO)[C@@H]3C1=O (some centres undefined)
Solution: 0.223

Exercise: Another compound to check: CC(C)CNC(=O)[C@@]1(C)c2ccccc2C(=O)N(C(C)C)[C@H]1c1ccc(CO)cc1
Solution: 0.0276

Exercise: Another compound to check: COCCCNC(=O)[C@@]1(Sc2ccc(C)cc2)CC(=O)N(Cc2ccccc2)[C@@H]1c1ccc(CO)cc1
Solution: 0.505

Exercise: Another compound to check: O=C1O[C@@H](c2ccccc2)[C@@H](c2ccccc2)N2[C@@H](c3ccc(O)cc3)[C@]3(C(=O)Nc4ccc(C#CCCO)cc43)[C@@H](C(=O)O)[C@H]12
Solution: 1.91

Exercise: Another compound to check: CN1C(=O)C2C=CC(C(O)c3ccccc3)N(NC(=O)OC(C)(C)C)C2C1=O (centres undefined)
Solution: 0.871

Exercise: Another compound to check: O=C1C2C=CC(C(O)c3ccccn3)N(Nc3ccccc3F)C2C(=O)N1c1ccccc1 (centres undefined)
Solution: 0.301

Exercise: Another compound to check: CCN(CC)c1ccc(N2CC=CC34O[C@@H]5/C=C\CCC(C)OC(=O)C5[C@H]3C(=O)N(CCCCCCO)[C@@H]4C2=O)cc1 (some centres undefined)
Solution: 0.374

Exercise: Another compound to check: CCOC(=O)C1=C[C@@H](C(C)(C)C)N(S(=O)(=O)c2ccc(C)cc2)[C@H]1c1ccc(Cl)c(Cl)c1
Solution: 1.53

Exercise: Another compound to check: O=C1OCC=C[C@H]2OC34C=CCN(c5ccc(Cl)cc5)C(=O)[C@H]3N(CCCO)C(=O)[C@@H]4[C@@H]12 (some centres undefined)
Solution: 0.3

Exercise: Another compound to check: C=CCC(OC(C)=O)[C@@H]1[C@@H](N(Cc2ccc(-c3cccc(C(F)(F)F)c3)o2)C(=O)c2ccc(C)cc2)c2cc(OCCCO)ccc2N1C(=O)c1ccc2ccccc2n1 (some centres undefined)
Solution: 0.147

Exercise: Another compound to check: C=C(CCCC)C(=O)CC[C@@H](OC(=O)c1ccccc1-c1ccccc1C(=O)O)c1ccc(CO)o1
Solution: 0.504

Exercise: Another compound to check: CN(C)CCCCNC(=O)[C@@H]1C[C@@H]2C(=O)N[C@@H](CCCCN)C(=O)N2[C@@H]1c1cccc(OCCO)c1
Solution: 2.07

Exercise: Another compound to check: COc1ccc([Si](C)(C)[C@@H]2[C@@H](CCO)O[C@]3(C(=O)N(Cc4cccc(N(C=O)c5ccccc5)c4)c4ccccc43)[C@H]2C)cc1
Solution: 0.835

Exercise: Another compound to check: C=CCC(OC(C)=O)[C@@H]1[C@@H](N(Cc2cc3ccccc3o2)C(=O)c2ccc(-c3ccccc3)cc2)c2cc(OCCCO)ccc2N1C(=O)Cc1ccc2ccccc2c1 (some centres undefined)
Solution: -0.0892

Exercise: Another compound to check: COc1ccc(CCNC(=O)[C@@]2(C)c3ccccc3C(=O)N(Cc3ccccc3)[C@H]2c2ccc(CO)cc2)cc1
Solution: 1.67

Exercise: Another compound to check: CN(C)CCCC[C@@H]1NC(=O)[C@H]2C[C@@H](C(=O)NCCCCCNC(=O)CS)[C@@H](c3ccc(O)cc3)N2C1=O
Solution: 0.356

Exercise: Another compound to check: O=C1OCC=C[C@H]2OC34C=CCN(CCN5CCOCC5)C(=O)[C@H]3N(CCCCCCO)C(=O)[C@@H]4[C@@H]12 (some centres undefined)
Solution: 2.07

Exercise: Another compound to check: O=C1C2C=CC(C(O)C3CC=CCC3)N(n3cnnc3)C2C(=O)N1Cc1ccccc1 (centres undefined)
Solution: 0.998

Exercise: Another compound to check: C=CCCN(CC#C[C@H]1Oc2ccccc2S(=O)(=O)N2CCC[C@@H]12)S(=O)(=O)c1ccc(C)cc1
Solution: 0.353

Exercise: Another compound to check: CN(C)CCCN1C(=O)[C@@]2(c3ccc([N+](=O)[O-])cc3)CC(=O)N(C3CCCCC3)[C@@H]2c2ccc(CO)cc21
Solution: -0.483
